- assay.details: Metabolism: substrate breakdown by the enzyme CYP2D6
- Assay type: in vitro ADME
- run.parameters: 30 minutes' incubation with CYP2D6; read-out: % Substrate breakdown after 30 minutes' incubation with CYP2D6
Each entry below lists one item and its recorded metabolised at 0.5 h value.

# compound, metabolised at 0.5 h, %
rows = [
    ("CS(=O)(=O)Nc1cc(C(O)CN)ccc1O (centres unmarked)", 1.4),
    ("CS(=O)(=O)Nc1ccc(F)c([C@@H](O)CN)c1", 2.1),
]
